Where do the numbers come from? From patent US20160272683A1.

Target: T1, human calcitonin receptor (human, UniProt P30988 25-474)
T1 sequence (looked up): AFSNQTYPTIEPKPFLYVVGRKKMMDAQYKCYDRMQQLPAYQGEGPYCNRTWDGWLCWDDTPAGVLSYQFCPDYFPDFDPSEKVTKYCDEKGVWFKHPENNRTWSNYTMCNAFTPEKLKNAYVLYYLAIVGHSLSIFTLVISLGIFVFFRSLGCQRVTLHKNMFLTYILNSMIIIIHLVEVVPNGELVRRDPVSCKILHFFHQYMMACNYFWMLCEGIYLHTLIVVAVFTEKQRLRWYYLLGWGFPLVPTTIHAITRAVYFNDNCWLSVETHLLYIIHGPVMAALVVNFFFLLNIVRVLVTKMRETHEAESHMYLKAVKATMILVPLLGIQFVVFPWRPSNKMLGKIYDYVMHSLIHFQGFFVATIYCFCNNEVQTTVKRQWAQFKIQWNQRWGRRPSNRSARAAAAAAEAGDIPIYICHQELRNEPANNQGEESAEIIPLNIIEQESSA
Assay: cell-based or functional assay
Numbered stars: 1 amine (or outer) side, 2 acyl side, 3 side chain; on linkers, the order of the positions; unused ones are H or OH. Ends that are not written are not given here. * marks the point of attachment. C20 diacid = O=C(O)CCCCCCCCCCCCCCCCCCC(=O)*; C18 diacid = O=C(O)CCCCCCCCCCCCCCCCC(=O)*; γGlu = O=C(O)[C@H](CCC(=O)[*:2])N[*:1]; C14 diacid = O=C(O)CCCCCCCCCCCCC(=O)*; C12 diacid = O=C(O)CCCCCCCCCCC(=O)*; AEEA = NCCOCCOCC(=O)O
READOUT TYPE: hCTR funct. EC50 (pM)

Worked cases, hCTR funct. EC50 (pM) given:
>>> recorded_number("{C18 diacid}-EASELSTAALGRLSAELHELATLPRTETGPESP-OH [[N-terminal(C18 diacid), C-terminal(-)]mimylin]")
45
>>> recorded_number("{C20 diacid-γGlu}-ASGLSTAALGRLSAELHELATYPRTETGSGSP-NH2 [[N-terminal(C20 diacid-gGlu), des1, 4G, 23Y, 30S, 31G]mimylin]")
42
>>> recorded_number("{C18 diacid-γGlu}-ASELTTAVLGRLEAELHELTTLPRTETGTGTP-NH2 [[N-terminal(C18 diacid-gGlu), des1, 6T, 9V, 14E, 21T, 30T, 31G, 32T]mimylin]")
66
>>> recorded_number("{C12 diacid}-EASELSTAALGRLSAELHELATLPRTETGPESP-NH2 [[N-terminal(C12 diacid)]mimylin]")
8
>>> recorded_number("{C18 diacid-γGlu}-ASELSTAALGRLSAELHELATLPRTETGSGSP-NH2 [[N-terminal(C18 diacid-gGlu), des1, 30S, 31G]mimylin]")
17
>>> recorded_number("{C20 diacid-γGlu-AEEA-AEEA-AEEA}-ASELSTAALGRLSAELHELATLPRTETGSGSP-NH2 [[N-terminal(C20 diacid-gGlu-3xOEG), des1, 30S, 31G]mimylin]")
11

(A) LSGLSTAVLGRLSQELHELQTYPRTETGSQTY-NH2 [[des1, 2L, 4G, 9V, 15Q, 21Q, 23Y, 30S, 31Q, 32T, 33Y]mimylin]
(B) {C20 diacid-γGlu-AEEA-AEEA-AEEA-AEEA-AEEA}-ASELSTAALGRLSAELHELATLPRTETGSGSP-NH2 [[N-terminal(C20 diacid-gGlu-5xOEG), des1, 30S, 31G]mimylin]
(C) {C14 diacid-γGlu}-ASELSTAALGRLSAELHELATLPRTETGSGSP-NH2 [[N-terminal(C14 diacid-gGlu), des1, 30S, 31G]mimylin]
(D) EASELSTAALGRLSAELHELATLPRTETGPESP-OH [[C-terminal(-)]mimylin]
(E) {C14 diacid}-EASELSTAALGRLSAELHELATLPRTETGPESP-NH2 [[N-terminal(C14 diacid)]mimylin]
Ascending by hCTR funct. EC50 (pM), please: list the binders accordingly. Form entry: ranked labels (order as requested).
E, C, A, B, D
(E: 2 pM, C: 4 pM, A: 6 pM, B: 10 pM, D: 840 pM)
